assay procedure: chemical genetic growth profiling, strain panel (AID 1159580);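 note: tested at 20 µM; growth read once vehicle control cultures reached saturation at 30 °C; 1 = growth at the plate median or of vehicle wells; lower values mean less growth of the strain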
test conditions: S. cerevisiae deletion strains, growth OD, strain TSCII, stronger effect = lower value
Among all 5,500 compounds or so, about 2,000 (36%) were called active. Inconclusive results (about 18%) are left out. Some of the results follow.
measure: normalized growth
Reply: number alone, nothing else.

I am curious: what normalized growth value has been reported for COc1cc(C2CC(=S)Nc3ccccc3S2)cc(OC)c1OC (stereo unspecified) ?
0.999

I am curious: what normalized growth value has been reported for CC(C)c1cccc(C(C)C)c1OC(=O)NC(=O)c1c(Cl)cccc1Cl ?
0.978

I am curious: what normalized growth value has been reported for S=C(NCc1cccs1)Nc1cc(Cl)cc(Cl)c1 ?
0.936

I am curious: what normalized growth value has been reported for CCOC(=O)c1cnc(-c2ccccn2)[nH]c1=O ?
0.916

I am curious: what normalized growth value has been reported for CC1SC(c2cccnc2)N(c2ccc(F)cc2F)C1=O (stereo unspecified) ?
0.985

I am curious: what normalized growth value has been reported for O=C1c2ccccc2C(=O)c2sccc21 ?
0.527

I am curious: what normalized growth value has been reported for CC1SC(c2cccnc2)N(c2ccc(Cl)cc2)C1=O (stereo unspecified) ?
0.946

I am curious: what normalized growth value has been reported for CCOC(=O)C(NC(=O)c1cccc(Cl)c1)(Nc1nc2ccccc2s1)C(F)(F)F (stereo unspecified) ?
0.962

I am curious: what normalized growth value has been reported for N/C(=N/OCc1c(F)cccc1Cl)c1ccc(Cl)cc1 ?
0.91

I am curious: what normalized growth value has been reported for O=[N+]([O-])c1ccc(NCc2ccc(Cl)c(Cl)c2)nc1 ?
0.93

I am curious: what normalized growth value has been reported for Cc1csc2c(N3CCN(C(=S)Nc4ccc(C(F)(F)F)cc4)CC3)ncnc12 ?
0.992

I am curious: what normalized growth value has been reported for O=C(OCCNc1ccc([N+](=O)[O-])cn1)c1ccc([N+](=O)[O-])o1 ?
0.894

I am curious: what normalized growth value has been reported for O=C(Nc1cc(Cl)cc(Cl)c1)c1cc(Br)ccc1O ?
0.942

I am curious: what normalized growth value has been reported for Cc1csc2ncnc(N3CCN(C(=S)Nc4ccc(C(F)(F)F)cc4)CC3)c12 ?
1

I am curious: what normalized growth value has been reported for COC(=O)c1cc([N+](=O)[O-])ccc1S(=O)(=O)Cc1ccc(Cl)cc1 ?
0.981

I am curious: what normalized growth value has been reported for O=C(Nc1ccc(F)cc1)c1cc(Br)ccc1O ?
0.902

Recorded values, source PubChem BioAssay AID1159580.
